assay: inhibitors of E-selectin induction by TNFa, primary screen, imaging, HUVEC, immunofluorescence, MLSMR starter and 10KST1 sets (AID 487); details: HUVEC TNFalpha-induced E-selectin immunofluorescence imaging, at 2 µM; stronger effect = higher value;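 also: signal is fraction of cell area covered by stained E-selectin grains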
Observable: inhibition (%)
The reply should contain only the number, in %.

Recorded inhibition, per entry:
>  <Compound>
O=P(O)(CCc1ccccc1)CN1CCCCC1

>  <Observable>
inhibition

>  <Unit info>
%

>  <Readout value>
-137

$$$$
>  <Compound>
O=C(C1CC1)N1CCc2cc(Br)cc(S(=O)(=O)N3CCOCC3)c21

>  <Observable>
inhibition

>  <Unit info>
%

>  <Readout value>
-22.9

$$$$
>  <Compound>
CC1=C(C(=O)OC(C)C)C(c2ccccn2)n2ncnc2N1 (stereo unspecified)

>  <Observable>
inhibition

>  <Unit info>
%

>  <Readout value>
-75.2

$$$$
>  <Compound>
Cc1ccc(-c2cc(C(=O)O)n[nH]2)o1

>  <Observable>
inhibition

>  <Unit info>
%

>  <Readout value>
-1.4

$$$$
>  <Compound>
CC(C)C(NC(=O)OCc1ccccc1)C(=O)OCC(=O)NCc1ccco1 (stereo unspecified)

>  <Observable>
inhibition

>  <Unit info>
%

>  <Readout value>
7.4

$$$$

Field: next compound
stdin: Using known records, supply inhibition for `CSc1nc2sc3c(c2c2nnnn12)CCCC3`
stdout: -77.3

* * *

test: DUSP6 inhibitors restoring Erk phosphorylation by chemical complementation, primary imaging in DUSP6-transfected HeLa (AID 609); details: HeLa MKP-3 transfected, phospho-Erk imaging KS statistic; measured here: nuclear c-Myc green intensity z-score; at 10 µM; cells stimulated with TPA for 15 min
Listed here: items and their measured z-score.
Returns: the value as a bare number; no unit string appended.

// below: answered compounds
>  <Compound>
Cc1cc(=O)oc(C)c1C(=O)NCC(C)C

>  <Readout value>
2.27

$$$$
>  <Compound>
CCCn1nc(Oc2nc(SC)nc(N(C)C)n2)ccc1=O

>  <Readout value>
-0.0746

$$$$
>  <Compound>
CC(NC(=O)Nc1ncccn1)(C(F)(F)F)C(F)(F)F

>  <Readout value>
2.27

$$$$

Would you kindly look at the next entry?
stdin: Retrieve z-score measured for CC(NC(=O)CSc1nc2c(cc1C#N)CN(C)CC2)c1ccccc1 (stereo not given) and print it.
stdout: -0.601

* * *

The entries below come with measured cell count values attached.
assay: inhibitors of TNFa-induced NFkB p65 translocation, primary screen, imaging, HUVEC, MLSMR starter and 10KST1 sets (AID 438); conditions: HUVEC TNFa-induced p65 nuclear translocation; measured here: nuclei count (cytotoxicity indicator), at 2.08 µM;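 also: compound added about 3h40 before a 20 min TNFalpha stimulation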
The reply should be a number, written without any unit.

>  <Compound>
COc1ccc(NC(=O)CS(=O)CC(=O)Nc2cc(Cl)ccc2OC)cc1 (stereo unspecified)

>  <cell count>
485

$$$$
>  <Compound>
CC1CCN(c2ncnc3c2cnn3Cc2ccc(Cl)cc2)CC1

>  <cell count>
549

$$$$
>  <Compound>
CS(=O)(=O)N(CC(=O)NCc1ccncc1)Cc1ccc(Cl)cc1

>  <cell count>
614

$$$$
>  <Compound>
Cc1ccc(Cl)cc1N1CCN(C(=O)C2CCCN(S(=O)(=O)c3cnc[nH]3)C2)CC1 (stereo unspecified)

>  <cell count>
563

$$$$
>  <Compound>
N#Cc1nc(COc2ccccc2)oc1N1CCCC1

>  <cell count>
463

$$$$

Turning to the following compound.
stdin: Please supply the value of reported cell count for the item `C=CCNc1nc(NCc2ccccc2)c(C#N)c2c1CN(C)CC2`
stdout: 592
